FYI, the data here is from patent US20250074910A1.

Assay: Stability in mouse liver microsomes
Format: in vitro ADME
Conditions: liver microsomes, pH 7.4, 0.5 mg/mL microsomal protein, 1.00 μM compound, NADPH, read-out: Half life T1/2, mouse liver microsomes
// values below are reported half-life at 1 μM

Please review the following examples before continuing.
{"columns": ["compound", "half-life at 1 μM"],
 "data": [
  ["CCN(C(=O)c1cc(F)ccc1Oc1nncnc1N1CC2(CCN(C[C@H]3CC[C@]4(CC3)C[C@H](COC)C(=O)N4)CC2)C1)C(C)C [Example 37-1]", "> 2 h"],
  ["COCC1(COC)C[C@]2(CC[C@@H](CN3CCC4(CC3)CN(c3ncnnc3Oc3ccc(F)cc3C(=O)N(C(C)C)C(C)C)C4)CC2)NC1=O [Example 20]", "1.85 h"]
]}

Read the next record carefully.
Give the measured half-life at 1 μM for CCN(C(=O)c1cc(F)ccc1Oc1nncnc1N1CC2(CCN(C[C@H]3CC[C@@]4(CCC(=O)N4)CC3)CC2)C1)C(C)C [Example 7]
> 2 h

---

Experiment: Pharmacokinetics test in mouse
Assay type: in vivo, ICR mice
Conditions: mice, p.o. 10 mg/kg; 1 mg/kg for intravenous injection
reportedProperty: F, % (%)

{"columns": ["molecule", "unitsSymbol", "experimentalResult"],
 "data": [
  ["CCN(C(=O)c1cc(F)ccc1Oc1cncnc1N1CC2(CCN(C[C@H]3CC[C@H](NS(=O)(=O)CC)CC3)CC2)C1)C(C)C [SNDX-5613, reference compound]", "%", 88]
]}

(I) CC(C)N(C(=O)c1cc(F)ccc1Oc1nncnc1N1CC2(CCN(CC3CCC4(CC3)COC(=O)N4)CC2)C1)C(C)C (centres unmarked) [Example 49]
(II) CC(C)N(C(=O)c1cc(F)ccc1Oc1cncnc1N1CC2(CCN(C[C@H]3CC[C@]4(CC3)CC(C)(C)C(=O)N4)CC2)C1)C1CC1 [Example 23]
# returns the entry with the larger F, %; inputs I and II Answer by quoting the chosen item's label.
II

---

System: MV4-11
Experiment: Cell proliferation inhibition (CellTiter-Glo), MV4-11
Type: cell-based
Details: Homo sapiens, MV4-11, 72 h, MV4-11 cells
Source text: Test Example 2: Test of the Inhibitory Ability of Menin-MLL Interaction Inhibitors on Cell Proliferation […]
reportedProperty: GI50 (nM)

{"columns": ["molecule", "unitsSymbol", "GI50"],
 "data": [
  ["CCN(C(=O)c1cc(F)ccc1Oc1nncnc1N1CC2(CCN(C[C@H]3CC[C@]4(CC3)CC(C(C)(C)O)C(=O)N4)CC2)C1)C(C)C (stereo partly drawn) [Example 58-1]", "nM", 17.2],
  ["[2H]C([2H])([2H])C1C[C@]2(CC[C@@H](CN3CCC4(CC3)CN(c3ncnnc3Oc3ccc(F)cc3C(=O)N(CC)C(C)C)C4)CC2)NC1=O (single isomer, unassigned)", "nM", 45.4],
  ["CCN(C(=O)c1cc(F)ccc1Oc1cncnc1N1CC2(CCN(C[C@H]3CC[C@]4(CC3)CC(COC)(COC)C(=O)N4)CC2)C1)C(C)C", "nM", 13.8],
  ["CCN(C(=O)c1cc(F)ccc1Oc1cncnc1N1CC2(CCN(CC3CC4CCC3CC43COC(=O)N3)CC2)C1)C(C)C (single isomer, unassigned) [Example 50-1b]", "nM", 26.4]
]}

(a) CC(C)N(C(=O)c1cc(F)ccc1Oc1cncnc1N1CC2(CCN(CC3CC4CCC3CC43COC(=O)N3)CC2)C1)C(C)C (single isomer, unassigned) [Example 51-1]
(b) CCN(C(=O)c1cc(F)ccc1Oc1nncnc1N1CC2(CCN(C[C@H]3CC[C@]4(CC3)CC3(CCOCC3)C(=O)N4)CC2)C1)C(C)C
# returns the entry with the larger GI50; inputs a and b Answer by quoting the chosen item's label.
a
(a: 21.1 nM, b: 12.7 nM)
